System: Acinetobacter calcoaceticus IFO 13006
ASSAY_SUMMARY: Anti-bacterial test, minimum inhibitory concentration on agar
Assay type: cell-based
STATED_CONDITIONS: Acinetobacter calcoaceticus IFO 13006; medium TSA
MEASURED_METRIC: Minimum inhibitory concentration (µg/mL)
Give bare numbers, in µg/mL.

Here are 3 compounds together with their reported answers.
{"COMPOUND": "O=C(NC1CN(S(=O)(=O)[O-])C1=O)C(NC(=O)N1CCN(N=Cc2ccco2)C1=O)c1cccs1.[Na+] (stereo not shown) [Compound L]", "UOM": "µg/mL", "RECORDED_RESULT": 50}
{"COMPOUND": "CCN1CCN(C(=O)N[C@H](C(=O)NC2CN(S(=O)(=O)[O-])C2=O)c2cccs2)C(=O)C1=O.[Na+] (stereo partly shown) [Compound F]", "UOM": "µg/mL", "RECORDED_RESULT": 25}
{"COMPOUND": "CCN1CCN(C(=O)NC(C(=O)NC2CN(S(=O)(=O)[O-])C2=O)c2cccs2)C(=O)C1=O.[Na+] (racemic) [Compound E]", "UOM": "µg/mL", "RECORDED_RESULT": 50}

Problem: Hello, I am looking for reported Minimum inhibitory concentration with Acinetobacter calcoaceticus IFO 13006 for CCCCCCCCN1CCN(C(=O)NC(C(=O)NC2CN(S(=O)(=O)[O-])C2=O)c2cccs2)C(=O)C1=O.[Na+] (stereo not shown) [Compound J] . Could you help?
Solution: 6.25
